# test.target: IR84a (Drosophila melanogaster)
# Sequence (Q9VIA5 25-644): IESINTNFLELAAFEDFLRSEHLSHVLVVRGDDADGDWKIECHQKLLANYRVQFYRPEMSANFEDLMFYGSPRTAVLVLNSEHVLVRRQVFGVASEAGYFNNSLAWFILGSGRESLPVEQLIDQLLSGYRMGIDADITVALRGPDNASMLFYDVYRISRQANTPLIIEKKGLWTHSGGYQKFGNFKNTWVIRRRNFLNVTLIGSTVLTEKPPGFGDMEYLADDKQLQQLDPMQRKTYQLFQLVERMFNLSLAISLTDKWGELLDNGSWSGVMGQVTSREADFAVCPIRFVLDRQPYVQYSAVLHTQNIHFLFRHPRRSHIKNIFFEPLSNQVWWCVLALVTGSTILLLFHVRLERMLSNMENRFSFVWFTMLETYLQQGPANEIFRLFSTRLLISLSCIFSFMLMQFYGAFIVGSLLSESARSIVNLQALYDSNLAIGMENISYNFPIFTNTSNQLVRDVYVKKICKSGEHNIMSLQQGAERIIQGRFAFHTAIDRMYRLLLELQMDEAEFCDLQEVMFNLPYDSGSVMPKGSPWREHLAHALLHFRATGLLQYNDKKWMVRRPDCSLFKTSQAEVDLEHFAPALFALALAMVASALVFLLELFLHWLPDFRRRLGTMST
# Sequence (Q9W365 18-936 partner): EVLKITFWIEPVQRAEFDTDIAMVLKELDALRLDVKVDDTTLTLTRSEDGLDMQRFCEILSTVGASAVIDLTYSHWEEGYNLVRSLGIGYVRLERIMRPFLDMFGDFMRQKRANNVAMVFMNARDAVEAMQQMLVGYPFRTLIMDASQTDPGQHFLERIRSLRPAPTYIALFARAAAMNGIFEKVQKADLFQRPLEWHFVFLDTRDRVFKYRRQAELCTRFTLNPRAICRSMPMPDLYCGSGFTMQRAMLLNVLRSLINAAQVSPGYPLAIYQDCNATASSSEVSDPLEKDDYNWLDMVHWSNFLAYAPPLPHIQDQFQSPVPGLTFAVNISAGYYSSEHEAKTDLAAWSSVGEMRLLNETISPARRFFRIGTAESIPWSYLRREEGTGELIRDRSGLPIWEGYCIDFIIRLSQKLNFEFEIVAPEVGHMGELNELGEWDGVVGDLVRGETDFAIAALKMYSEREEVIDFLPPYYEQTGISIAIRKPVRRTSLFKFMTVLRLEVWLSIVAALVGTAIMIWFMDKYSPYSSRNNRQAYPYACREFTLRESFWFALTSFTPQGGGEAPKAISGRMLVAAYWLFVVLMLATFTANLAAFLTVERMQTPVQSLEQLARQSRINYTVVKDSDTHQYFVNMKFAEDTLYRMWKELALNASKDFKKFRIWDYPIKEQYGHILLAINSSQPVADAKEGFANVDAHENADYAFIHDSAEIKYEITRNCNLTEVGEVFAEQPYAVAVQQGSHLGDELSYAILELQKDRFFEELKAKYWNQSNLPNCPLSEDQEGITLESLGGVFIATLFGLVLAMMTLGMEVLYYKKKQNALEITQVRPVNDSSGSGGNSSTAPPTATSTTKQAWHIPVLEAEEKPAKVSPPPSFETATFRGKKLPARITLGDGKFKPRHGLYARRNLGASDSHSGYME
metric: IC50 (µM)

>>> value("CC12CC3CC(C)(C1)CC(N)(C3)C2 [memantine]")
39
